Test system: CAF#2 (primary prostate cancer-associated fibroblasts of iCAF-like type)
Experimental protocol: drug sensitivity score (DSS2, normalised partial AUC of dose-response, 72 h CellTiter-Glo viability) (DSS (dimensionless)); higher = more sensitive (stronger growth inhibition / cytotoxicity); extreme values may be limits of the assay
Measured drug sensitivity score of individual entries
Property name: drug sensitivity score

Compound	Property name	Recorded value
Clc1ccc(C(c2ccccc2Cl)C(Cl)Cl)cc1 (stereo not drawn) [Mitotane] (tested concentration range 1-10000 nM)	drug sensitivity score	0
CCn1c(-c2nonc2N)nc2cnc(Oc3cccc(NC(=O)c4ccc(OCCN5CCOCC5)cc4)c3)cc21 (tested concentration range 1-10000 nM)	drug sensitivity score	3.3
FC(F)(F)c1ccc(/C=C/c2nc(COc3ccc(CCCCn4ccnn4)cc3)co2)cc1 [Mubritinib] (tested concentration range 0.1-1000 nM)	drug sensitivity score	0

* * *

Tested on: CAF#2
Experimental protocol: drug sensitivity score (DSS2, normalised partial AUC of dose-response, 72 h CellTiter-Glo viability) (DSS (dimensionless)); higher = more sensitive (stronger growth inhibition / cytotoxicity); extreme values may be limits of the assay

Compound	Target system	drug sensitivity score
COc1cc2nccc(Oc3ccc(NC(=O)NC4CC4)c(Cl)c3)c2cc1C(N)=O [Lenvatinib] (tested concentration range 0.2-2500 nM)	CAF#2	4.3
O=C1CN2Cc3c(ccc(Cl)c3Cl)N=C2N1 [Anagrelide] (tested concentration range 1-10000 nM)	CAF#2	0.6
CC(C)C(=O)Nc1ccc([N+](=O)[O-])c(C(F)(F)F)c1 [Flutamide] (tested concentration range 1-10000 nM)	CAF#2	2.8
CC[C@H](CO)Nc1nc(NCc2ccccc2)c2ncn(C(C)C)c2n1 [Seliciclib] (tested concentration range 1-10000 nM)	CAF#2	1.1
COc1nc(N)nc2c1ncn2[C@@H]1O[C@H](CO)[C@@H](O)[C@@H]1O [Nelarabine] (tested concentration range 1-10000 nM)	CAF#2	0
CCc1cc2c(cc1N1CCC(N3CCOCC3)CC1)C(C)(C)c1[nH]c3cc(C#N)ccc3c1C2=O [Alectinib] (tested concentration range 0.1-1000 nM)	CAF#2	0.2

* * *

Measured drug sensitivity score of individual entries
Test system: CAF#5 (primary prostate cancer-associated fibroblasts of myCAF-like type)
Experimental protocol: drug sensitivity score (DSS2, normalised partial AUC of dose-response, 72 h CellTiter-Glo viability) (DSS (dimensionless)); higher = more sensitive (stronger growth inhibition / cytotoxicity); extreme values may be limits of the assay

Compound	Target system	drug sensitivity score
Cc1c(C(=O)Nc2ccc(N3C[C@@H](C)O[C@@H](C)C3)nc2)cccc1-c1ccc(OC(F)(F)F)cc1 [Sonidegib] (tested concentration range 1-10000 nM)	CAF#5	1.5
CN1CCN(C2CCC(n3cc(-c4ccc(Oc5ccccc5)cc4)c4c(N)ncnc43)CC2)CC1 (stereo unspecified) (tested concentration range 1-10000 nM)	CAF#5	11.5
Nc1nccc(-c2c(-c3ccc(F)cc3)ncn2C2CCCCC2)n1 (tested concentration range 1-10000 nM)	CAF#5	0
Cc1nc2cccc(N)c2c(=O)n1C1CCC(=O)NC1=O (stereo unspecified) [Avadomide] (tested concentration range 1-10000 nM)	CAF#5	0
S=c1[nH]cnc2nc[nH]c12 [Mercaptopurine] (tested concentration range 1-10000 nM)	CAF#5	0
Cc1cn(-c2cc(NC(=O)c3ccc(C)c(Nc4nccc(-c5cnccn5)n4)c3)cc(C(F)(F)F)c2)cn1 [Radotinib] (tested concentration range 1-10000 nM)	CAF#5	0
